Where do the numbers come from? From paper PMC9032693.

- targetOfAssay: CKα1 (Homo sapiens, UniProt P35790)
- Construct: an N-terminally His-tagged truncated form of CKα1 (Δ75–457) was cloned into a pET-28a vector; His tag (N); made in house; host or cells: E. coli BL21 (DE3) Star
- Sequence (P35790 75-457): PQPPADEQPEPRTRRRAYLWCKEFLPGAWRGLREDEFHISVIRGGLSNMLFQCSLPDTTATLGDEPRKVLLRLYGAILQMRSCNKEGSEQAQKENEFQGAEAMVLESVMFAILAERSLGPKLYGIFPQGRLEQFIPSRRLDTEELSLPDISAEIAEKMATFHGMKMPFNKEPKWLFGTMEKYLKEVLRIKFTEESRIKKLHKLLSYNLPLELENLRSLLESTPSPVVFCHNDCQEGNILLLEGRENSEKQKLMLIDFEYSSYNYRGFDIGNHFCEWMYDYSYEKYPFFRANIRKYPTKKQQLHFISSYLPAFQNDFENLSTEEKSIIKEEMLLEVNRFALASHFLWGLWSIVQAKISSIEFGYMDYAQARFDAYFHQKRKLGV
- experimentSummary: Choline kinase assay ([methyl-14C]choline into PCho, purified enzyme)
- Type: biochemical
- conditionSummary: purified CKα1, inhibitor 30 µM, end-point assay
propertyMeasured: % Inhibition at 30 µM
Remember to put the unit after the number in your answer.

Some solved cases for reference:
[Br-].[Br-].c1cc2c(N3CCCC3)nc[n+](Cc3ccc(OCCOc4ccc(C[n+]5cnc(N6CCCC6)c6ccsc65)cc4)cc3)c2s1 [Ff-4] | 77.28%
[Br-].[Br-].c1cc2c(s1)c(N1CCCC1)cc[n+]2Cc1ccc(CCc2ccc(C[n+]3ccc(N4CCCC4)c4sccc43)cc2)cc1 [Fg-11] | 94.25%

I need % Inhibition at 30 µM for every entry listed below, if you could help.
1. [Br-].[Br-].c1cc2c(s1)c(N1CCCCC1)nc[n+]2Cc1ccc(OCCOc2ccc(C[n+]3cnc(N4CCCCC4)c4sccc43)cc2)cc1 [Fa-28]
2. [Br-].[Br-].c1cc2c(N3CCCCCC3)nc[n+](Cc3ccc(CCCCc4ccc(C[n+]5cnc(N6CCCCCC6)c6ccsc65)cc4)cc3)c2s1 [Ff-35]
3. [Br-].[Br-].c1cc2c(s1)c(N1CCCC1)cc[n+]2Cc1ccc(CCCCc2ccc(C[n+]3ccc(N4CCCC4)c4sccc43)cc2)cc1 [Ff-1]

["92.19%", "97.80%", "90.83%"]
